- tgt: Protein deacetylase HDAC6 (Homo sapiens) (UniProt Q9UBN7)
- Sequence (whole entry): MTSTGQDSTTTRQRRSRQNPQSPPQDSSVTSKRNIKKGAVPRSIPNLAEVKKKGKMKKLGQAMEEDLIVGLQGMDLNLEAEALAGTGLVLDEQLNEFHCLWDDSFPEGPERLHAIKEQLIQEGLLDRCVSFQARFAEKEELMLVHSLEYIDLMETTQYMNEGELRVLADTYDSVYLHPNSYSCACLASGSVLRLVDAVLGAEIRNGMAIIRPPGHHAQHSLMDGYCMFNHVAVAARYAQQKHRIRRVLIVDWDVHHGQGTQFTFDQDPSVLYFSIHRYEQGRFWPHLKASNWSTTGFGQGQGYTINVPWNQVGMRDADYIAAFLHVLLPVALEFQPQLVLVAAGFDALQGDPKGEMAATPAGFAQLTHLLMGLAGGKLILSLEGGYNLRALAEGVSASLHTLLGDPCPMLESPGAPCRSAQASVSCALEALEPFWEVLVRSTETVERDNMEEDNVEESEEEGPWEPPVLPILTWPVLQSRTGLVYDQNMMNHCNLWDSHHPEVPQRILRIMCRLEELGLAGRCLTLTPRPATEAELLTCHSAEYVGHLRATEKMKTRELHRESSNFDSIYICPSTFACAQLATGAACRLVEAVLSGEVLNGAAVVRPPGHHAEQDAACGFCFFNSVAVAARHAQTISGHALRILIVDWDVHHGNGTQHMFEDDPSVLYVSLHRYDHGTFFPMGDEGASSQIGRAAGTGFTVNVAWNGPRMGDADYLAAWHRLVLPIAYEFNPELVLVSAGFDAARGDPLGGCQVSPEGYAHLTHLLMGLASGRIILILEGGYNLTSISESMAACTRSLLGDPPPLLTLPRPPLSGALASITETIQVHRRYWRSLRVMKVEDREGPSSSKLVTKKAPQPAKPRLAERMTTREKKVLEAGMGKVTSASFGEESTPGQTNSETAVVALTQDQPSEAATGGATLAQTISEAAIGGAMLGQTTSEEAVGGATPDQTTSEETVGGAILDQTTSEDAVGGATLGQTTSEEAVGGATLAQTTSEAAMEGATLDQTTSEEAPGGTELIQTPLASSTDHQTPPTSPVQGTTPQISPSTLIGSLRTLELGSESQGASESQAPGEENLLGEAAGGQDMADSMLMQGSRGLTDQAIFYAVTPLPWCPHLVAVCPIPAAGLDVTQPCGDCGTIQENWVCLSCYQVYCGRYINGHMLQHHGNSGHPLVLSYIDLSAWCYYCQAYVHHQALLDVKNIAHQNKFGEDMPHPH
- assay.text: Inhibition of His-tagged HDAC6 (unknown origin) expressed in Escherichia coli BL21(DE3) at 10 uM after 60 mins by MALDI mass spectrometry
Property: inhibition; scope: individual compounds

Quick one: inhibition for "Nc1nc2ncc(CNc3ccc(C(=O)N[C@@H](CCC(=O)NCCCCCCCC(=O)Nc4cc(-c5cccs5)ccc4N)C(=O)O)cc3)nc2c(=O)[nH]1" ? < 20%

Quick one: inhibition for "Nc1nc2ncc(CNc3ccc(C(=O)N[C@@H](CCC(=O)NCCCCCCC(=O)Nc4cc(-c5cccs5)ccc4N)C(=O)O)cc3)nc2c(=O)[nH]1" ? < 20%

Quick one: inhibition for "Nc1nc2ncc(CNc3ccc(C(=O)N[C@@H](CCC(=O)NCCCCCCCCC(=O)Nc4cc(-c5cccs5)ccc4N)C(=O)O)cc3)nc2c(=O)[nH]1" ? < 20%

Quick one: inhibition for "Nc1nc2ncc(CNc3ccc(C(=O)N[C@@H](CCC(=O)NCCCC(=O)Nc4cc(-c5cccs5)ccc4N)C(=O)O)cc3)nc2c(=O)[nH]1" ? 22.8%

Quick one: inhibition for "Nc1nc2ncc(CNc3ccc(C(=O)N[C@@H](CCC(=O)NO)C(=O)O)cc3)nc2c(=O)[nH]1" ? < 20%
